The origin of these recorded values is ChEMBL document CHEMBL1201862.

# Tested on: SR
# method.summary: NCI tumour cell line growth inhibition, 48 h
The source made the active and inactive calls. Cut-off read from the data, not from the text of the source: active = GI50 up to about 1.1 µM and inactive = higher.
The entries below come with measured GI50 values attached.

Examples with answers:
CC(C)(C)c1cc(OCc2nnc3sc(S)nn23)c(Cl)cc1OCc1nnc2sc(S)nn12: 18.3 µM (inactive)
O=C1[C@@H]2C(c3cccc([N+](=O)[O-])c3)=NO[C@@H]2C(=O)N1c1ccc(Cc2ccc(N3C(=O)[C@H]4C(c5cccc([N+](=O)[O-])c5)=NO[C@H]4C3=O)cc2)cc1: > 100 µM (inactive)
NS(=O)(=O)c1ccccc1C(=O)N/N=C(\c1nc2ccc([N+](=O)[O-])cc2[nH]c1=O)C(O)c1ccc([N+](=O)[O-])cc1 (stereo not given): > 100 µM (inactive)
CCCCNc1nc(NC2OCC(OC(C)=O)C(OC(C)=O)C2OC(C)=O)c(N=O)c(=O)n1C (stereo not given): > 10 µM (inactive)
Cc1ccc(N2CCN(CCC(=O)O)CC2)cc1: 16.9 µM (inactive)
COc1cc(OC)c(/C=N\Nc2nc3ccccc3c(=O)n2-c2ccccc2)c(OC)c1: 36.6 µM (inactive)
CNC(=O)O/N=C1\N(C)CN(c2ccccc2)C12CCN(CCCC(=O)c1ccc(F)cc1)CC2: 39.3 µM (inactive)
CC(C)=C/C(CC(O)(C(F)(F)F)C(F)(F)F)=N\O: > 100 µM (inactive)

stdin: Data request, read-out GI50, for `O=C1c2cc([N+](=O)[O-])ccc2-c2ccc3c4ccc5c6c(ccc(c7ccc1c2c73)c64)C(=O)c1cc([N+](=O)[O-])ccc1-5`
stdout: > 100 µM (inactive)

stdin: For `CCOC(=O)CC(=O)Sc1ccccc1` then?
stdout: 14.1 µM (inactive)

stdin: For `O=C(c1cccc2ccccc12)N1CCC(C2CCN(C(=O)c3cccc4ccccc34)CC2)CC1` then?
stdout: > 100 µM (inactive)

stdin: For COC(=O)C1CCC(=O)N1C(c1cc(OC)c(OC)c(OC)c1)c1cc(OC)c(OC)c(OC)c1 (stereo not given) then?
stdout: > 100 µM (inactive)

stdin: For `COC(=O)c1c(C)c2c(c(C)c1O)OC(=O)c1c(C)cc(O)c(C=O)c1O2` then?
stdout: > 100 µM (inactive)

* * *

# Test system: NCI/ADR-RES
# method.summary: NCI tumour cell line growth inhibition, 48 h
The source made the active and inactive calls. No stated cut-off is given here; in the data, active = GI50 up to about 1.1 µM and inactive = higher.
readout.name: GI50

Examples with answers:
CC(=O)c1c2c(cc3c1CCC3)CCC2: > 100 µM (inactive)
O=C1C=CC(=O)c2c1ccc1c3ccccc3n(Cc3ccc([N+](=O)[O-])cc3)c21: > 100 µM (inactive)
CCOP(=O)(OCC)c1ccc(=O)[nH]c1-c1cccs1: > 100 µM (inactive)

stdin: Data request, read-out GI50, for `CC(/C=N\NC(=S)N(C)C)=N/NC(=S)N(C)C`
stdout: 0.202 µM (active)

stdin: For `COc1ccc(COCCOCc2nc(C#N)c(N)o2)cc1` then?
stdout: > 100 µM (inactive)

* * *

# System: SN12C
# method.summary: NCI tumour cell line growth inhibition, 48 h
Calls of active or inactive are those of the source. Cut-off read from the data, not from the text of the source: active = GI50 up to about 1.1 µM and inactive = higher.
The entries below come with measured GI50 values attached.

Examples with answers:
O=C(O)CNS(=O)(=O)c1ccc(NC(=O)CI)cc1: 32.5 µM (inactive)
Cc1ccnc2[nH]c3ccccc3c(=O)c12: 21.3 µM (inactive)

Now take the following compound into account.
stdin: Data request, read-out GI50, for `Cc1ccc2nc(Cl)c(/C=N/N3C(=O)/C(=C/Cc4ccco4)N=C3c3ccccc3)cc2c1`
stdout: 26.5 µM (inactive)

* * *

# Tested on: COLO 205
# method.summary: NCI tumour cell line growth inhibition, 48 h
Calls of active or inactive are those of the source. Cut-off read from the data, not from the text of the source: active = GI50 up to about 1.1 µM and inactive = higher.
readout.name: GI50

stdin: Data request, read-out GI50, for `[N-]=[N+]=Nc1ccc2c(c1)Sc1ccccc1N2CCCCCl`
stdout: 18.7 µM (inactive)

stdin: For `Cc1ccc(Cc2n[nH]c(=O)n2Nc2ccccc2)cc1` then?
stdout: > 100 µM (inactive)

stdin: For `N#CC1=C2Sc3ccccc3N2[C@H](c2ccccc2)[C@H]2COC(=O)[C@@H]12` then?
stdout: > 100 µM (inactive)

stdin: For Cc1ccc(C2NC(=N)NC3=C2CCOc2c3ccc3ccccc23)cc1 (stereo not given) then?
stdout: 20.8 µM (inactive)

* * *

The entries below come with measured GI50 values attached.
# System: CAKI-1
# method.summary: NCI tumour cell line growth inhibition, 48 h
The source made the active and inactive calls. No stated cut-off is given here; in the data, active = GI50 up to about 1.1 µM and inactive = higher.

Clc1c2nc3ccccc3c-2[nH]c2ccccc12: 9.16 µM (inactive)
CCCCN1CN2C(=O)C(C(=O)OCC)C(=O)c3sc4nc(SC)nc1c4c32 (stereo unspecified): 17.3 µM (inactive)
Cc1ccc(/C=C/C(=O)c2cccc3ccccc23)cc1: 16.4 µM (inactive)

stdin: Data request, read-out GI50, for `COc1ccc(/C=C(/c2ccccc2)c2c(C)cc(C)c(/C(=C\c3ccc(OC)cc3)c3ccccc3)c2/N=N/c2cc(C)cc(C)c2)cc1`
stdout: > 88.1 µM (inactive)

stdin: For `O=C(Cn1c2c(c3ccccc31)CCCC2)N1CCOCC1` then?
stdout: > 100 µM (inactive)

stdin: For COC(=O)C1=C(C[S+]([O-])c2ccc([N+](=O)[O-])cc2[N+](=O)[O-])C2C=CC1C2 (stereo unspecified) then?
stdout: 21.1 µM (inactive)

* * *

# Test system: EKVX
# method.summary: NCI tumour cell line growth inhibition, 48 h
The source made the active and inactive calls. No stated cut-off is given here; in the data, active = GI50 up to about 1.1 µM and inactive = higher.
The entries below come with measured GI50 values attached.

Examples with answers:
O=C(N[C@@H](c1ccccc1)[C@@H](O)C(=O)OCc1ccc([N+](=O)[O-])cc1)c1ccccc1: > 100 µM (inactive)
COc1ccccc1NC(=O)CC(=O)n1nc(C)c(/N=N/c2ccccc2C(=O)O)c1C: 29.6 µM (inactive)

stdin: Data request, read-out GI50, for `Cc1cc([N+](=O)[O-])c(C)c(Br)c1C`
stdout: 70.8 µM (inactive)

stdin: For `COc1ncnc2c1cnn2Cc1cn(CCCCO)nn1` then?
stdout: > 100 µM (inactive)

stdin: For `COc1ccc(/N=N/C(=NNC(=O)c2ccc(C)cc2)c2ccc(N(C)C)cc2)cc1` then?
stdout: 37.7 µM (inactive)

stdin: For `CCOC(=O)Cn1c(=O)c(C)cn(COCCO)c1=O` then?
stdout: > 100 µM (inactive)

stdin: For COc1cc(-c2coc3c(OC)c(OC4OC(COC5OC(C)C(O)C(O)C5O)C(O)C(O)C4O)c(OC)c(O)c3c2=O)cc(C)c1O (stereo unspecified) then?
stdout: 17.2 µM (inactive)

stdin: For `COc1cc(/C=C/c2ccc(OC)c(OC)c2)oc(=O)c1` then?
stdout: > 116 µM (inactive)

stdin: For `O=C1c2cc([N+](=O)[O-])ccc2-c2ccc3c4ccc5c6c(ccc(c7ccc1c2c73)c64)C(=O)c1cc([N+](=O)[O-])ccc1-5` then?
stdout: > 100 µM (inactive)

stdin: For Nc1ncc2ncn(C3CCC(CO)O3)c2n1 (stereo unspecified) then?
stdout: > 100 µM (inactive)

stdin: For `Cc1cccc2ns[s+]c12` then?
stdout: > 100 µM (inactive)

* * *

The entries below come with measured GI50 values attached.
# Test system: UACC-257
# method.summary: NCI tumour cell line growth inhibition, 48 h
The source made the active and inactive calls. Cut-off read from the data, not from the text of the source: active = GI50 up to about 1.1 µM and inactive = higher.

Examples with answers:
COc1cc(C2SC(=N)Nc3c2c(C)nn3C(=O)c2ccc(Cl)cc2)ccc1O (stereo unspecified): > 10 µM (inactive)
O=C(Nc1ccccc1-c1nn(C(=S)Nc2ccccc2)c(=S)n(C(=S)Nc2ccccc2)c1=O)C(F)(F)F: 14.2 µM (inactive)
COc1cc(/C=C/C2=NN(c3cccc(S(=O)(=O)O)c3)C3(C2)SCC(=O)N3c2nc3ccccc3s2)cc(OC)c1OC (stereo unspecified): 95.7 µM (inactive)
COC(=O)/C=C\C(C#N)(C#N)/N=C/c1cccc(OC)c1: 14 µM (inactive)
Cc1ccc2nc(-c3ccc(NC(=O)c4ccc(N)cc4)c(S(=O)(=O)O)c3)sc2c1: > 100 µM (inactive)

stdin: # get_value(readout= GI50, system= UACC-257) for `Cn1nc2ccc3nccc(N4CCN(CCO)CC4)c3c2n1`
stdout: > 100 µM (inactive)

stdin: For CCCCCOCC(O)CO (stereo unspecified) then?
stdout: > 100 µM (inactive)

stdin: For O=C1CCC2(CC1CCSc1ccccc1)OCCO2 (stereo unspecified) then?
stdout: > 100 µM (inactive)

* * *

The entries below come with measured GI50 values attached.
# System: KM12
# method.summary: NCI tumour cell line growth inhibition, 48 h
Active and inactive are the calls of the source. Rule as the data show it: active = GI50 up to about 1.1 µM and inactive = higher.

Examples with answers:
O=C(OCC1CC(C2(O)CCCCC2)C(=O)O1)c1ccccc1 (stereo not drawn): > 100 µM (inactive)
COC(=O)C1=C(C)C=C(N2CCOCC2)C(C(=O)OC)C1c1ccccc1 (stereo not drawn): > 10 µM (inactive)
N=C(N)SCCON1C(=O)c2ccccc2C1=O: > 100 µM (inactive)
CCOC(=O)C1=C(C)N2CCCOC2(C)C(C(=O)OC)C1c1cccc([N+](=O)[O-])c1 (stereo not drawn): 49.9 µM (inactive)
CCOC(=O)c1cc(-n2nnc3ccccc32)cn1C: > 10 µM (inactive)
O=C(CCC(=O)CC(O)(C(F)(F)F)C(F)(F)F)CC(O)(C(F)(F)F)C(F)(F)F: 26.4 µM (inactive)
Cn1nc2ccc3nccc(N4CCN(CCO)CC4)c3c2n1: > 100 µM (inactive)
Cc1ccc(C(=O)N2CCN(C(=O)c3ccc(C)cc3)c3ccccc32)cc1: 3.29 µM (inactive)
C=C(C)CCC1C=[N+]([O-])OC(C)(C)C1(C)C (stereo not drawn): > 100 µM (inactive)
CC(C)c1cc(Cl)nc(Cl)n1: > 100 µM (inactive)

stdin: Data request, read-out GI50, for CC1=C(OC2OC(CO)C(O)C(O)C2O)C(=O)C[C@H]2C1=CC[C@@H]1[C@@]2(C)C(=O)C[C@]2(C)[C@@H]([C@@](C)(O)C(=O)CCC(C)(C)O)[C@H](O)C[C@@]12C (stereo partly drawn)
stdout: > 100 µM (inactive)

stdin: For CCCCS(=N)(=O)CC[C@H](N)C(=O)O (stereo partly drawn) then?
stdout: > 5000 µM (inactive)

stdin: For `CCOP(=O)(OCC)c1ccc(=O)[nH]c1-c1cccs1` then?
stdout: > 100 µM (inactive)

stdin: For `COC(=O)CC(=O)OC` then?
stdout: > 100 µM (inactive)

stdin: For `CCCCNS(=O)(=O)c1n[nH]c(=O)[nH]c1=O` then?
stdout: > 100 µM (inactive)
